experimental-target: Dual specificity protein phosphatase 6 (Homo sapiens)
measurement-notes: DUSP6 inhibitors restoring Erk phosphorylation by chemical complementation, primary imaging in DUSP6-transfected HeLa (AID 609);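 also: phospho-Erk level distribution per well compared with pooled transfected vehicle control wells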
condition: HeLa MKP-3 transfected, phospho-Erk imaging KS statistic; at 10 µM; stronger effect = higher value; cells stimulated with TPA for 15 min
Calls of active or inactive are those of the source.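 The calls were made as follows: active = compounds giving at least 50% inhibition in the cell-based MKP-3 phosphatase rescue imaging test; inactive = the rest.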
value-type: inhibition

Endpoint output: inhibition of Cc1cc(=O)oc(C)c1C(=O)N1CCN(C)CC1 . Value?
-8.59% (inactive)

Endpoint output: inhibition of Cc1cccc(C)c1N1C(=O)C2ON(c3ccccc3)C(c3ccncc3)C2C1=O (stereo not given) . Value?
-1.75% (inactive)

Endpoint output: inhibition of O=c1oc2cc(O)ccc2c2oc3cc(O)ccc3c12 . Value?
25.7% (inactive)

Endpoint output: inhibition of C[C@]12CC[C@@H]3c4ccc(O)cc4C(=O)C[C@H]3[C@@H]1CC[C@@H]2O . Value?
10.2% (inactive)

Endpoint output: inhibition of CCCC(=O)O[C@]1(C(=O)CCl)[C@@H](C)C[C@H]2[C@@H]3CCC4=CC(=O)C=C[C@]4(C)[C@@]3(F)C(=O)C[C@@]21C . Value?
19.2% (inactive)

Endpoint output: inhibition of COc1ccccc1C(CC(=O)Nc1nccs1)c1ccco1 (stereo not given) . Value?
1.75% (inactive)

Endpoint output: inhibition of COc1ccccc1N(O)C1CC(=O)N(c2ccc(Br)cc2)C1=O (stereo not given) . Value?
-2.59% (inactive)

Endpoint output: inhibition of O=C(c1cncc(Br)c1)N1CCCc2ccccc21 . Value?
-7.86% (inactive)

Endpoint output: inhibition of O=C(c1ccco1)N1CCN(c2ncnc3c2[nH]c2ccccc23)CC1 . Value?
0.671% (inactive)

Endpoint output: inhibition of Cn1c(=O)c2c(nc(OCc3cccnc3)n2Cc2ccccc2)n(C)c1=O . Value?
-2.91% (inactive)

* * *

Provide the reported nuclei count of each item.
measurement-notes: inhibitors of mutant huntingtin aggregation, primary screen, imaging, exon1htt(103Q)mCFP cells, high-content imaging (AID 483);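 also: compound exposure lasted 3 days before fixation; percent of the per-plate median nuclei count of sample wells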
condition: exon1htt(103Q)mCFP cell line, aggregate imaging, at 2 µM; measured here: cell count, toxicity
Express your answer in %, writing the number without its unit.

Endpoint output: nuclei count of N#C/C(C(=O)N1CCOCC1)=C1/SC(Cc2ccccc2)C(=O)N1c1ccccc1 (stereo unspecified) . Value?
105

Endpoint output: nuclei count of COc1ccc(C2=Nn3c(nnc3-c3ccccc3)SC2)cc1OC . Value?
92.4

Endpoint output: nuclei count of CCOC(=O)c1c(C)n(C)c2ccc(O)c(S(=O)(=O)c3ccccc3)c12 . Value?
103

Endpoint output: nuclei count of OC[C@H]1O[C@@H](n2cnc3c(NC4CCCC4)ncnc32)[C@H](O)[C@@H]1O . Value?
110

Endpoint output: nuclei count of Nc1nc2ccc(OC(F)(F)F)cc2s1 . Value?
86.1

Endpoint output: nuclei count of CC(C)(S)[C@@H](N)C(=O)O . Value?
105

Endpoint output: nuclei count of COc1ccc(OC)c(C2/C(=C(\O)c3ccc4c(c3)OCCO4)C(=O)C(=O)N2CCCN(C)C)c1 (stereo unspecified) . Value?
115

Endpoint output: nuclei count of CCCCc1c(O)nc(SCCN(C)C)n(-c2ccccc2)c1=O . Value?
94.9

Endpoint output: nuclei count of c1ccc2[nH]c(-c3cscn3)nc2c1 . Value?
99.7

Endpoint output: nuclei count of C1CNCCNCCNCCN1 . Value?
109

Endpoint output: nuclei count of Cc1nnc2n(-c3ccccc3)c(=O)c3c4c(sc3n12)CCCC4 . Value?
95.5

Endpoint output: nuclei count of O=C(NCc1cccnc1)/C(=N\O)c1ccccc1 . Value?
100

Endpoint output: nuclei count of CCn1cc(C(=O)NCc2ccco2)c(=O)c2cc(F)c(N3CCN(C(=O)c4ccco4)CC3)cc21 . Value?
99.3

Endpoint output: nuclei count of Brc1c(NC2=NCCN2)ccc2nccnc12 . Value?
104

Endpoint output: nuclei count of Cc1ccc(C2/C(=C(/O)c3cnn(-c4ccccc4)c3C)C(=O)C(=O)N2CCN2CCOCC2)o1 (stereo unspecified) . Value?
100

Endpoint output: nuclei count of CC(=O)[C@H]1[C@H](C#N)C[C@H]2[C@@H]3CC=C4C[C@@H](O)CC[C@]4(C)[C@H]3CC[C@@]21C . Value?
106

Endpoint output: nuclei count of COc1ccc2c(C)nc(Nc3nc(C)cc(C)n3)nc2c1 . Value?
116

Endpoint output: nuclei count of CC(COc1ccccc1)NC(C)C(O)c1ccc(O)cc1 (stereo unspecified) . Value?
100

Endpoint output: nuclei count of CC1(C)CC(=O)C2=C(C1)N(CC1CCCO1)C(=O)C2(O)C(F)(F)F (stereo unspecified) . Value?
108

Endpoint output: nuclei count of CC(Cc1ccc(O)c(O)c1)C(C)Cc1ccc(O)c(O)c1 (stereo unspecified) . Value?
100

Endpoint output: nuclei count of CCOC(=O)CSC1=C(C#N)C(=O)NC(c2ccc(OC)c(OC)c2)S1 (stereo unspecified) . Value?
88.7

Endpoint output: nuclei count of CCN(CC)CCOC(=O)C1(C2CCCCC2)CCCCC1 . Value?
96

Endpoint output: nuclei count of COC(=O)CC1SC(=O)NC1=O (stereo unspecified) . Value?
110

Endpoint output: nuclei count of Cc1nc(/N=C(\N)Nc2ccccc2)nc2ccccc12 . Value?
103

Endpoint output: nuclei count of CCOC(=O)c1ccc(N2C(=O)CC(Sc3nnc(C)s3)C2=O)cc1 (stereo unspecified) . Value?
98

Endpoint output: nuclei count of CNCCCC1c2ccccc2C=Cc2ccccc21 . Value?
79.5

Endpoint output: nuclei count of CCc1cn([C@H]2C[C@H](O)[C@@H](CO)O2)c(=O)[nH]c1=O . Value?
102

Endpoint output: nuclei count of CCc1ccccc1NC(=O)CSC1=C(C#N)C(c2ccc(O)c(OC)c2)C2=C(CCCC2=O)N1 (stereo unspecified) . Value?
109

Endpoint output: nuclei count of O=C(CCN1C(=O)c2ccccc2C1=O)OCN1C(=O)c2ccccc2C1=O . Value?
95.1

Endpoint output: nuclei count of COc1ccc2c(c1)n([O-])c1c([n+]2=O)CCC1 . Value?
113

Endpoint output: nuclei count of CCOc1c(C)cc2[nH]c(CCC(=O)O)nc2c1C . Value?
97.7

Endpoint output: nuclei count of c1ccc(SCc2nc3ccccc3[nH]2)nc1 . Value?
107

Endpoint output: nuclei count of CCCCc1nc2n[nH]c(N)c2c2c1CCCC2 . Value?
2.8

Endpoint output: nuclei count of Cc1onc(-c2ccccc2)c1C(=O)N[C@@H]1C(=O)N2[C@@H]1SC(C)(C)[C@@H]2C(=O)O . Value?
102

Endpoint output: nuclei count of C[C@]12CC[C@@H]3c4ccc(O)cc4C(=O)C[C@H]3[C@@H]1CC[C@@H]2O . Value?
79.9

Endpoint output: nuclei count of CCN(CC)c1ccc2c(C)c(-c3ccc(N)cc3)c(=O)oc2c1 . Value?
98.2

Endpoint output: nuclei count of COc1ccc(OC)c(C2C(C#N)=C(N)Oc3cc(C)[nH]c(=O)c32)c1 (stereo unspecified) . Value?
88.9

Endpoint output: nuclei count of C#CCN(C)Cc1ccccc1 . Value?
96.3

Endpoint output: nuclei count of CN1CCN(C2=Nc3ccccc3Oc3ccc(Cl)cc32)CC1 . Value?
91.8

Endpoint output: nuclei count of Cc1ccc(C(=O)/C=C/Nc2cccc(O)c2)cc1 . Value?
106

Endpoint output: nuclei count of COCCNC(=O)c1c(N)n(/N=C/c2cccs2)c2nc3ccccc3nc12 . Value?
108

Endpoint output: nuclei count of Cc1ccc(S(=O)(=O)NCC(=O)OCN2C(=O)c3ccccc3C2=O)cc1 . Value?
85.7

Endpoint output: nuclei count of O=C(NCC(F)(F)F)N1CCOCC1 . Value?
106

Endpoint output: nuclei count of O=C(O)c1cc(O)c2c(c1)C(=O)c1cccc(O)c1C2=O . Value?
100

Endpoint output: nuclei count of CCCN(CCC)C(=O)CC(c1ccc(F)cc1)c1ccco1 (stereo unspecified) . Value?
92.6

Endpoint output: nuclei count of CCOC(=O)/C(C#N)=C1\Nc2ccccc2N=C1N(CC(C)C)CC(C)C . Value?
105
